system: CFTR G551D mutant (Homo sapiens, UniProt P13569, G551D)
Construct: expressed in transfected cells; host or cells: HEK293 cells, reverse transfection with plasmids
Sequence (P13569 whole entry G551D): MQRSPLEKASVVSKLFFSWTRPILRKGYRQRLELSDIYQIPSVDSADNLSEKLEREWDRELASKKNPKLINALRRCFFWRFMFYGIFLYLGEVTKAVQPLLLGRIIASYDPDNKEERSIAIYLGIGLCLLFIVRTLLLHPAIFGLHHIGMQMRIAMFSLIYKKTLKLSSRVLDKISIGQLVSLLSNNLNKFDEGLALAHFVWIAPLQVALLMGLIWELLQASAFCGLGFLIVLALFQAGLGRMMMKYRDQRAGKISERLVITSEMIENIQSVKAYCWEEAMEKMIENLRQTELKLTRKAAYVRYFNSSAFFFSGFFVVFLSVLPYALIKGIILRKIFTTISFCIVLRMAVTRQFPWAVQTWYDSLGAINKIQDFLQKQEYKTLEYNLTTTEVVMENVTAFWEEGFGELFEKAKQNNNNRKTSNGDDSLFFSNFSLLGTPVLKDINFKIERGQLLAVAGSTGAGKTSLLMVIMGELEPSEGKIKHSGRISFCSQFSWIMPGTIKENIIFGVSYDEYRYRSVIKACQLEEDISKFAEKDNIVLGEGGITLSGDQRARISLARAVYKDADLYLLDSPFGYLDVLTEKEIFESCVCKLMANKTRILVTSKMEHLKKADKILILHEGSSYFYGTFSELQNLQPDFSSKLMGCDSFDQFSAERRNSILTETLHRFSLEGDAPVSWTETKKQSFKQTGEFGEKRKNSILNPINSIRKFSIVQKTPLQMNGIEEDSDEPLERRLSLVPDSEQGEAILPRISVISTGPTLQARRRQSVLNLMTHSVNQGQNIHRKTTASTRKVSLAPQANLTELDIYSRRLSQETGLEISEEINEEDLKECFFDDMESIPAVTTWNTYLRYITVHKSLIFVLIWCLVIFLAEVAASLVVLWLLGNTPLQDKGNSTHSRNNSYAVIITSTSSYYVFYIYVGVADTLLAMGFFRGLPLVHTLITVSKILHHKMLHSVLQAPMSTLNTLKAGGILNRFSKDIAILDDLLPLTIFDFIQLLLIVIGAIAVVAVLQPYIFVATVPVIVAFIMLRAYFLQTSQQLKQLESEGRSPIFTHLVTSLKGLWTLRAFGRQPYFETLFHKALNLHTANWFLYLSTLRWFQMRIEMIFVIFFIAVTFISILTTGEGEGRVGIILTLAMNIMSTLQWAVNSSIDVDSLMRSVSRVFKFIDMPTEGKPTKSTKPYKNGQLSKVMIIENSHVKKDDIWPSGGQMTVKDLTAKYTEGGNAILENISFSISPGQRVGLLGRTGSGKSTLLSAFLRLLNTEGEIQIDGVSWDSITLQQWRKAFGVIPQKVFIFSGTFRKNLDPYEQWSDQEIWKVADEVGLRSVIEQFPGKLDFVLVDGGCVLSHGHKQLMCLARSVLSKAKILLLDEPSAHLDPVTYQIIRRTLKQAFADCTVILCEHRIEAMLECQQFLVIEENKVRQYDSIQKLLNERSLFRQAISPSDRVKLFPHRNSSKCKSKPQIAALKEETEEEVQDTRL
procedureText: YFP-halide influx assay for the CFTR-G551D mutation (HEK293 cells)
Format: cell-based
experimentalParameters: forskolin 10.67 μM
observedProperty: % Activation (%)

(I) C[C@H](O)CNC(=O)c1ncc(S(=O)(=O)N2CCC[C@@H]2C)cc1N
(II) Nc1cc(S(=O)(=O)N2CCC(F)CC2)cnc1C(=O)NCC(O)C(F)(F)F (stereo not shown)
(III) CC1(C)CN(C(=O)c2ncc(S(=O)(=O)c3ccc(C(F)(F)F)cc3F)cc2N)C1
Challenge: Lab note: order the above by reported % Activation, lowest first, highest last. // rank by listing labels in the order requested
Response given: I, II, III

Values from patent US10047051B2
